Test system: HeLa
Measurement Notes: Antiproliferative activity against human HeLa cells assessed as growth inhibition at 8 uM after 72 hrs by CCK-8 assay relative to control
Assay type: functional
Condition Description: read-out: GI
Quick reference for inhibition of growth at 8 µM among some molecules

Molecule	Target Or Test System	Units Symbol	inhibition of growth at 8 µM
Nc1ccccc1NC(=O)/C=C/c1ccc(CSc2ccc(Cl)cc2)cc1	HeLa	%	17.3
Nc1ccccc1NC(=O)c1ccc(CSc2ccc(Cl)cc2)cc1	HeLa	%	51.4
Nc1ccccc1NC(=O)c1ccc(CSCCc2ccccc2)cc1	HeLa	%	74.8
Cc1cc(C)cc(SCc2ccc(C(=O)Nc3ccccc3N)cc2)c1	HeLa	%	78.8
Nc1ccccc1NC(=O)/C=C/c1ccc(CSc2ccc(C(F)(F)F)cn2)cc1	HeLa	%	6.82
Cc1ccc(SCc2ccc(/C=C/C(=O)Nc3ccccc3N)cc2)cc1	HeLa	%	21.7
Nc1ccccc1NC(=O)c1ccc(CSc2ccc(C(F)(F)F)cn2)cc1	HeLa	%	16.5
CC(C)(C)c1ccc(SCc2ccc(/C=C/C(=O)Nc3ccccc3N)cc2)cc1	HeLa	%	9.8
COc1ccc(SCc2ccc(C(=O)Nc3ccccc3N)cc2)cc1	HeLa	%	79.7
Nc1ccccc1NC(=O)/C=C/c1ccc(CSc2cccc(F)c2)cc1	HeLa	%	18.6
Nc1ccccc1NC(=O)/C=C/c1ccc(CSc2cccc3ccccc23)cc1	HeLa	%	22.1
CC(C)(C)c1ccc(SCc2ccc(C(=O)Nc3ccccc3N)cc2)cc1	HeLa	%	40.2
Nc1ccccc1NC(=O)c1ccc(CSc2nccc(C(F)(F)F)n2)cc1	HeLa	%	83.4
COC(=O)c1ccccc1SCc1ccc(C(=O)Nc2ccccc2N)cc1	HeLa	%	55.5
Cc1cc(C)cc(SCc2ccc(/C=C/C(=O)Nc3ccccc3N)cc2)c1	HeLa	%	3.39
Nc1ccc(F)cc1NC(=O)c1ccc(CNC(=O)/C=C/c2cccnc2)cc1	HeLa	%	34.2
Nc1ccccc1NC(=O)/C=C/c1ccc(CSc2ccc(F)cc2)cc1	HeLa	%	10.4
Cc1ccc(SCc2ccc(C(=O)Nc3ccccc3N)cc2)cc1	HeLa	%	79.2
CCc1ccc(SCc2ccc(/C=C/C(=O)Nc3ccccc3N)cc2)cc1	HeLa	%	20.9
Nc1ccccc1NC(=O)c1ccc(CSc2ccc(Br)cc2)cc1	HeLa	%	38.2
CC(=O)Nc1ccc(C(=O)Nc2ccccc2N)cc1 [TACEDINALINE]	HeLa	%	29.1
COc1ccc(SCc2ccc(C(=O)Nc3ccccc3N)cc2)cc1OC	HeLa	%	79.9

----------
Quick reference for inhibition of growth at 8 µM among some compounds
System: A-375
Measurement Notes: Antiproliferative activity against human A375 cells assessed as growth inhibition at 8 uM after 72 hrs by CCK-8 assay relative to control
Type: functional
Condition Description: A-375, 72 h, read-out: GI

Smiles Text	inhibition of growth at 8 µM / %
CC(C)(C)c1ccc(SCc2ccc(C(=O)Nc3ccccc3N)cc2)cc1	33.1
COc1ccc(SCc2ccc(C(=O)Nc3ccccc3N)cc2)cc1OC	84.6
Nc1ccccc1NC(=O)c1ccc(CSc2ccc(Cl)cc2)cc1	48.6
Nc1ccccc1NC(=O)/C=C/c1ccc(CSc2ccc(Cl)cc2)cc1	48.2
Cc1ccc(SCc2ccc(C(=O)Nc3ccccc3N)cc2)cc1	67
COC(=O)c1ccccc1SCc1ccc(C(=O)Nc2ccccc2N)cc1	70.1
Nc1ccc(F)cc1NC(=O)c1ccc(CNC(=O)/C=C/c2cccnc2)cc1	71.7
Nc1ccccc1NC(=O)/C=C/c1ccc(CSc2ccc(F)cc2)cc1	24.6
Nc1ccccc1NC(=O)/C=C/c1ccc(CSc2cccc3ccccc23)cc1	36
Nc1ccccc1NC(=O)c1ccc(CSc2ccc(C(F)(F)F)cn2)cc1	5.34

----------
Quick reference for IC50 among some compounds
Target Or Test System: Histone deacetylase 1 (Homo sapiens, UniProt Q13547)
Sequence (Q13547 whole entry): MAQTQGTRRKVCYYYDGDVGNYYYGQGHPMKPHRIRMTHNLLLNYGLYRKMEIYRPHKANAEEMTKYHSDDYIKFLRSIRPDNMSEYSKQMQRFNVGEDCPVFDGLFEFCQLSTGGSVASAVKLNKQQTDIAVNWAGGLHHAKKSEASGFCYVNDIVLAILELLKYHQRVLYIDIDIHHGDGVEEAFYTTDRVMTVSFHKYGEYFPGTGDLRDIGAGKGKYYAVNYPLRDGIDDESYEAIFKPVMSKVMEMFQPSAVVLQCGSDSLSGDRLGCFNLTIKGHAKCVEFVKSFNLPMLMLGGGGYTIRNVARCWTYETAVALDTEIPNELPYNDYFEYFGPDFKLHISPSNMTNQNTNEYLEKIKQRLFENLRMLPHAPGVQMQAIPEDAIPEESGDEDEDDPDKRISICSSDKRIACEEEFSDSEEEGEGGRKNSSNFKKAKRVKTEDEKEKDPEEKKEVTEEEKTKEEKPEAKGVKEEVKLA
Measurement Notes: Inhibition of recombinant human His tagged HDAC1 expressed in baculovirus infected insect cells assessed as decrease in deacetylation of FLUOR DE LYS Green substrate preincubated for 10 mins followed by substrate addition and measured after 30 mins by fluorescence based assay

Smiles Text	Target Or Test System	IC50, nM
Cc1cc(C)cc(SCc2ccc(C(=O)Nc3ccccc3N)cc2)c1	Histone deacetylase 1 (Homo sapiens, UniProt Q13547)	20
CCc1ccc(SCc2ccc(C(=O)Nc3ccccc3N)cc2)cc1	Histone deacetylase 1 (Homo sapiens, UniProt Q13547)	71
COc1ccc(SCc2ccc(C(=O)Nc3ccccc3N)cc2)cc1	Histone deacetylase 1 (Homo sapiens, UniProt Q13547)	16
Nc1ccccc1NC(=O)c1ccc(CSc2nccc(C(F)(F)F)n2)cc1	Histone deacetylase 1 (Homo sapiens, UniProt Q13547)	11

----------
System: HeLa
Measurement Notes: Antiproliferative activity against human HeLa cells assessed as growth inhibition at 8 uM after 72 hrs by CCK-8 assay relative to control
Assay type: functional
Condition Description: read-out: GI

Smiles Text	inhibition of growth at 8 µM / %
Nc1ccccc1NC(=O)c1ccc(CSc2cccc(F)c2)cc1	78.4
CCc1ccc(SCc2ccc(C(=O)Nc3ccccc3N)cc2)cc1	71
Nc1ccccc1NC(=O)c1ccc(CSc2ccc(F)cc2)cc1	79.3
COc1ccc(SCc2ccc(/C=C/C(=O)Nc3ccccc3N)cc2)cc1OC	21.9
Nc1ccccc1NC(=O)/C=C/c1ccc(CSCCc2ccccc2)cc1	3.57

----------
Test system: A549
Measurement Notes: Cell cycle arrest in human A549 cells assessed as accumulation of cells at G2/M phase at 1 uM after 48 hrs by propidium iodide staining-based flow cytometry (reference value: 13.62%)
Type: functional

Compound	Target Or Test System	Activity
CC(=O)Nc1ccc(C(=O)Nc2ccccc2N)cc1 [TACEDINALINE]	A549	17.41%
Nc1ccc(F)cc1NC(=O)c1ccc(CNC(=O)/C=C/c2cccnc2)cc1	A549	18.67%
COc1ccc(SCc2ccc(C(=O)Nc3ccccc3N)cc2)cc1	A549	38.3%
CCc1ccc(SCc2ccc(C(=O)Nc3ccccc3N)cc2)cc1	A549	59.87%

----------
Measurement Notes: Half life in ICR mouse at 4 mg/kg, iv after 0.08 to 24 hrs by LC-MS/MS analysis
Type: ADME, organism-based
Condition Description: in vivo
Quick reference for half-life among some compounds
Reported Metric: half-life (h)

Smiles Text	Reported Metric	Reading
COc1ccc(SCc2ccc(C(=O)Nc3ccccc3N)cc2)cc1	half-life	2.24
CCc1ccc(SCc2ccc(C(=O)Nc3ccccc3N)cc2)cc1	half-life	2.59
Nc1ccccc1NC(=O)c1ccc(COc2ccc(F)cc2)cc1	half-life	0.56

----------
System: A549
Measurement Notes: Cell cycle arrest in human A549 cells assessed as accumulation of cells at G0/G1 phase at 1 uM after 48 hrs by propidium iodide staining-based flow cytometry (reference value: 73.35%)
Format: functional
Quick reference for Activity among some molecules

Smiles Text	Target Or Test System	Activity [%]
CC(=O)Nc1ccc(C(=O)Nc2ccccc2N)cc1	A549	75.86
CCc1ccc(SCc2ccc(C(=O)Nc3ccccc3N)cc2)cc1	A549	30.39
COc1ccc(SCc2ccc(C(=O)Nc3ccccc3N)cc2)cc1	A549	41.07
Nc1ccc(F)cc1NC(=O)c1ccc(CNC(=O)/C=C/c2cccnc2)cc1	A549	74.07

----------
Target Or Test System: Histone deacetylase
Measurement Notes: Inhibition of HDAC in human HeLa cell nuclear extract assessed as decrease in deacetylation of FLUOR DE LYS Green substrate preincubated for 10 mins followed by substrate addition and measured after 30 mins by fluorescence based assay
Format: cell-free

Smiles Text	Units Symbol	Relational Operator	IC50
COc1ccc(SCc2ccc(C(=O)Nc3ccccc3N)cc2)cc1	µM	>	32
Cc1cc(C)cc(SCc2ccc(C(=O)Nc3ccccc3N)cc2)c1	µM	=	10.72
Nc1ccccc1NC(=O)c1ccc(CSc2nccc(C(F)(F)F)n2)cc1	µM	=	1.995
CCc1ccc(SCc2ccc(C(=O)Nc3ccccc3N)cc2)cc1	µM	>	32

----------
Tested on: A549
Measurement Notes: Induction of apoptosis in human A549 cells assessed as early apoptotic cells at 2 uM after 48 hrs by Annexin V-FITC/propidium iodide staining based flow cytometry (reference value: 1.19%)
Assay type: functional

Smiles Text	Activity, %
CCc1ccc(SCc2ccc(C(=O)Nc3ccccc3N)cc2)cc1	6.55
CC(=O)Nc1ccc(C(=O)Nc2ccccc2N)cc1	3.68
Nc1ccc(F)cc1NC(=O)c1ccc(CNC(=O)/C=C/c2cccnc2)cc1	3.97
COc1ccc(SCc2ccc(C(=O)Nc3ccccc3N)cc2)cc1	5.65

----------
Test system: A-375
Measurement Notes: Antiproliferative activity against human A375 cells assessed as growth inhibition at 8 uM after 72 hrs by CCK-8 assay relative to control
Format: functional
Condition Description: A-375, 72 h, read-out: GI
Label yes (1) when inhibition of growth at 8 µM is at or above 50%; otherwise label no (0).

Smiles Text	Target Or Test System	Class Label
Nc1ccccc1NC(=O)/C=C/c1ccc(CSc2cccc(F)c2)cc1	A-375	no (0)
CC(C)(C)c1ccc(SCc2ccc(/C=C/C(=O)Nc3ccccc3N)cc2)cc1	A-375	no (0)
Cc1cc(C)cc(SCc2ccc(/C=C/C(=O)Nc3ccccc3N)cc2)c1	A-375	no (0)
Nc1ccccc1NC(=O)/C=C/c1ccc(CSCCc2ccccc2)cc1	A-375	no (0)
Nc1ccccc1NC(=O)c1ccc(CSc2cccc(F)c2)cc1	A-375	yes (1)
Nc1ccccc1NC(=O)c1ccc(CSc2ccc(F)cc2)cc1	A-375	yes (1)
